Data provenance is patent US20050266577A1.

# condition.parameters: Support: Non-woven 1; 10 nanomolar CE concentration in phosphate buffered saline
readout: % Non Specific Binding (%)
Numbers only, in %.

Known % Non Specific Binding results, listed for orientation:
[[record]]
molecule = "C[C@]12CC[C@H]3[C@@H](CCC4=CC(=O)CC[C@@]43C)[C@@H]1CC[C@@H]2O [testosterone]"
observed_result = 1

[[record]]
molecule = "C[C@H]1O[C@@H](O[C@H]2[C@@H](O)C[C@H](O[C@H]3[C@@H](O)C[C@H](O[C@H]4CC[C@@]5(C)[C@H](CC[C@@H]6[C@@H]5C[C@@H](O)[C@]5(C)[C@@H](C7=CC(=O)OC7)CC[C@]65O)C4)O[C@@H]3C)O[C@@H]2C)C[C@H](O)[C@@H]1O [digoxin]"
observed_result = 3


Quick batch: % Non Specific Binding for everything below.
1. CC(C)NCC(O)COc1cccc2ccccc12 (centres unmarked) [proprananol]
2. CN(Cc1cnc2nc(N)nc(N)c2n1)c1ccc(C(=O)N[C@@H](CCC(=O)O)C(=O)O)cc1 [methotrexate]

Result:
[0, 0]

Reported % Non Specific Binding ( OC[C@@H](O)[C@@H](O)[C@H](O)[C@H](O)CO [mannitol] ) = 2

###

# condition.parameters: No support; 10 nanomolar CE concentration in phosphate buffered saline
readout: % Non Specific Binding (%)
Numbers only, in %.

Known % Non Specific Binding results, listed for orientation:
[[record]]
compound = "OC[C@@H](O)[C@@H](O)[C@H](O)[C@H](O)CO [mannitol]"
readout = "% Non Specific Binding"
readout_unit = "%"
observed_result = 2

[[record]]
compound = "C[C@]12CC[C@H]3[C@@H](CCC4=CC(=O)CC[C@@]43C)[C@@H]1CC[C@@H]2O [testosterone]"
readout = "% Non Specific Binding"
readout_unit = "%"
observed_result = 4

[[record]]
compound = "C[C@H]1O[C@@H](O[C@H]2[C@@H](O)C[C@H](O[C@H]3[C@@H](O)C[C@H](O[C@H]4CC[C@@]5(C)[C@H](CC[C@@H]6[C@@H]5C[C@@H](O)[C@]5(C)[C@@H](C7=CC(=O)OC7)CC[C@]65O)C4)O[C@@H]3C)O[C@@H]2C)C[C@H](O)[C@@H]1O [digoxin]"
readout = "% Non Specific Binding"
readout_unit = "%"
observed_result = 3

[[record]]
compound = "CC(C)NCC(O)COc1cccc2ccccc12 (centres unmarked) [proprananol]"
readout = "% Non Specific Binding"
readout_unit = "%"
observed_result = 4


Reported % Non Specific Binding ( CN(Cc1cnc2nc(N)nc(N)c2n1)c1ccc(C(=O)N[C@@H](CCC(=O)O)C(=O)O)cc1 [methotrexate] ) = 4

###

Would you kindly list % Non Specific Binding for each of these molecules?
# condition.parameters: Support: Non-woven 2; 10 nanomolar CE concentration in phosphate buffered saline
Give bare numbers, in %.

Known % Non Specific Binding results, listed for orientation:
[[record]]
molecule = "CC(C)NCC(O)COc1cccc2ccccc12 (centres unmarked) [proprananol]"
readout_unit = "%"
observed_result = 2

[[record]]
molecule = "CN(Cc1cnc2nc(N)nc(N)c2n1)c1ccc(C(=O)N[C@@H](CCC(=O)O)C(=O)O)cc1 [methotrexate]"
readout_unit = "%"
observed_result = 3

[[record]]
molecule = "OC[C@@H](O)[C@@H](O)[C@H](O)[C@H](O)CO [mannitol]"
readout_unit = "%"
observed_result = 1

[[record]]
molecule = "C[C@H]1O[C@@H](O[C@H]2[C@@H](O)C[C@H](O[C@H]3[C@@H](O)C[C@H](O[C@H]4CC[C@@]5(C)[C@H](CC[C@@H]6[C@@H]5C[C@@H](O)[C@]5(C)[C@@H](C7=CC(=O)OC7)CC[C@]65O)C4)O[C@@H]3C)O[C@@H]2C)C[C@H](O)[C@@H]1O [digoxin]"
readout_unit = "%"
observed_result = 2


Reported % Non Specific Binding ( C[C@]12CC[C@H]3[C@@H](CCC4=CC(=O)CC[C@@]43C)[C@@H]1CC[C@@H]2O [testosterone] ) = 1
